- Test target: human CD33
- Test method notes: Biacore SPR binding kinetics of anti-CD33 scFv-Fc clones with or without 10 µM MTX
- Condition description: CD33; 10 µM MTX; 37° C., pH 7.4; koff/kon, or estimated from binding response / limit of detection for weak interactions; read-out: KD, kinetics toward antigen with 10 µM MTX
pKd: −log10 of the molar value.
A collection of molecules and their measured pKd
Measure name: pKd

[[record]]
molecule = "P02_E08: anti-CD33 clone with conditional affinity; VH SEQ ID NO: 37, VL SEQ ID NO: 38; also as scFv in CAR (antibody, V domains shown, Synthetic Antibody, also as scFv in CAR) VH: QVQLVESGGGLVQAGGSLRLSCAASRRSSRSWAMHWVRQAPGKGLEWVAVISYDGRLKYYADSVKGRFTISRDNAEYLVYLQMNSLRAEDTAVYYCAASDYDGGGLFDLWGQGTLVTVSS VL: QSVLTQPPSASGTPGQRVTISCSGSNSNIGDNYVHWYQQLPGTAPKLLIYMNNQRPSGVPDRFSGSKSGTSASLAISGLRSEDEADYYCATWDDSLSGVVFGTGTKLTVL"
measure_name = "pKd"
result = "< 6.14"

[[record]]
molecule = "P02_A10: anti-CD33 clone with conditional affinity; VH SEQ ID NO: 9, VL SEQ ID NO: 10 (antibody, V domains shown, Synthetic Antibody) VH: QVQLVESGGGLVQAGGSLRLSCAASRRSSRSWAMHWVRQAPGKGLEWVAVISYDGRLKYYADSVKGRFTISRDNAEYLVYLQMNSLRAEDTAVYYCAAESEWDTGGFDVWGQGTLVTVSS VL: DIQMTQSPSSLSASVGDRVTITCRASQSIGSYLNWYQQKPGKAPKLLIYSSSNLQSGVPSRFSGSGSGTDFTLTISSLQPEDFATYYCQQSYTSGTFGQGTKVEIK"
measure_name = "pKd"
result = "< 5.04"


Sourced from patent US20230192839A1
